Provide the recorded IC50 for the entries that follow.
# Tested System: Beta-ketoacyl-[acyl-carrier-protein] synthase III (Haemophilus influenzae (strain ATCC 51907 / DSM 11121 / KW20 / Rd))
# Sequence (P43711 whole entry): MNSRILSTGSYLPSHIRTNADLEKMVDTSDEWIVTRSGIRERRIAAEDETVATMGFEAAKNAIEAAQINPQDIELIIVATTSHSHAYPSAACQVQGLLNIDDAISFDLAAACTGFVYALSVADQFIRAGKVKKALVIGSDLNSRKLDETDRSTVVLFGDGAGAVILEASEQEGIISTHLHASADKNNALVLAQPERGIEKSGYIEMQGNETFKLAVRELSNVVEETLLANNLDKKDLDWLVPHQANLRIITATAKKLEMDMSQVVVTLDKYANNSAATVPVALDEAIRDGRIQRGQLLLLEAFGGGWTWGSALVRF
# Method Description: Inhibitory concentration against Haemophilus influenzae beta-Ketoacyl-acyl carrier protein synthase III
Give just the number in µM; leave the unit off.

Form field: reported IC50 of O=C(Nc1cccc(O)c1C(=O)O)c1ccc(-c2ccccc2)c(Oc2ccccc2)c1 2.4

Form field: reported IC50 of O=C(Nc1cccc(O)c1C(=O)O)c1ccc(Br)c(Oc2ccccc2)c1 20

###

# System: Neisseria meningitidis
# Method Description: Minimum inhibitory concentration against Neisseria meningitides MC58 in presence of membrane permeablizing agent polymyxin B
# Assay type: functional
Provide the recorded MIC for the entries that follow.
Give just the number in µg/mL; leave the unit off.

Which measured MIC belongs to CC(C)c1cccc(-c2ccc(C(=O)Nc3ccccc3C(=O)O)cc2Oc2ccccc2)c1 , tested on Neisseria meningitidis? 1.4

Which measured MIC belongs to O=C(Nc1ccccc1C(=O)O)c1ccc(-c2ccc(F)cc2F)c(Oc2ccccc2)c1 , tested on Neisseria meningitidis? 0.36

Which measured MIC belongs to O=C(Nc1ccccc1C(=O)O)c1ccc(-c2ccc(C(F)(F)F)cc2)c(Oc2ccccc2)c1 , tested on Neisseria meningitidis? 1.4

Which measured MIC belongs to CS(=O)(=O)c1ccc(-c2ccc(C(=O)Nc3ccccc3C(=O)O)cc2Oc2ccccc2)cc1 , tested on Neisseria meningitidis? 5.6

Which measured MIC belongs to O=C(Nc1cccc(O)c1C(=O)O)c1ccc(Br)c(Oc2ccccc2)c1 , tested on Neisseria meningitidis? 2.8

Which measured MIC belongs to Cc1cc(-c2ccc(C(=O)Nc3ccccc3C(=O)O)cc2Oc2ccccc2)ccc1Cl , tested on Neisseria meningitidis? 0.7

Which measured MIC belongs to O=C(Nc1ccccc1C(=O)O)c1ccc(-c2ccccc2)c(Oc2ccccc2)c1 , tested on Neisseria meningitidis? 1.4

Which measured MIC belongs to Cc1cc(-c2ccc(C(=O)Nc3ccccc3C(=O)O)cc2Oc2ccccc2)ccc1F , tested on Neisseria meningitidis? 0.7

Which measured MIC belongs to CC1CC(C)CN(c2ccc(C(=O)Nc3ccccc3C(=O)O)cc2Oc2ccccc2)C1 (stereo not given) , tested on Neisseria meningitidis? 2.8

Which measured MIC belongs to O=C(Nc1cccc(O)c1C(=O)O)c1ccc(-c2ccccc2)c(Oc2ccccc2)c1 , tested on Neisseria meningitidis? 1.4

###

# System: Streptococcus pneumoniae
# Method Description: Minimum inhibitory concentration against Streptococcus pneumonia ATCC 6301
# Format: functional
Quantity: MIC
Number first, unit second.

Form field: reported MIC of Cc1cc(-c2ccc(C(=O)Nc3ccccc3C(=O)O)cc2Oc2ccccc2)ccc1Cl 2.8 µg/mL

Form field: reported MIC of CC1CC(C)CN(c2ccc(C(=O)Nc3ccccc3C(=O)O)cc2Oc2ccccc2)C1 (stereo not given) 2.8 µg/mL

Form field: reported MIC of Cc1cc(-c2ccc(C(=O)Nc3ccccc3C(=O)O)cc2Oc2ccccc2)ccc1F 0.7 µg/mL

Form field: reported MIC of O=C(Nc1ccccc1C(=O)O)c1ccc(-c2ccc(F)cc2F)c(Oc2ccccc2)c1 2.8 µg/mL

Form field: reported MIC of CC(C)c1cccc(-c2ccc(C(=O)Nc3ccccc3C(=O)O)cc2Oc2ccccc2)c1 1.4 µg/mL

Form field: reported MIC of O=C(Nc1ccccc1C(=O)O)c1ccc(-c2ccc(C(F)(F)F)cc2)c(Oc2ccccc2)c1 0.7 µg/mL

Form field: reported MIC of CS(=O)(=O)c1ccc(-c2ccc(C(=O)Nc3ccccc3C(=O)O)cc2Oc2ccccc2)cc1 45 µg/mL

Form field: reported MIC of O=C(Nc1cccc(O)c1C(=O)O)c1ccc(-c2ccccc2)c(Oc2ccccc2)c1 22 µg/mL

Form field: reported MIC of O=C(Nc1ccccc1C(=O)O)c1ccc(-c2ccccc2)c(Oc2ccccc2)c1 1.4 µg/mL

Form field: reported MIC of O=C(Nc1cccc(O)c1C(=O)O)c1ccc(Br)c(Oc2ccccc2)c1 45 µg/mL

###

# Tested System: Beta-ketoacyl-[acyl-carrier-protein] synthase III (Enterococcus faecalis (strain ATCC 700802 / V583), UniProt Q820T1)
# Sequence (Q820T1 whole entry): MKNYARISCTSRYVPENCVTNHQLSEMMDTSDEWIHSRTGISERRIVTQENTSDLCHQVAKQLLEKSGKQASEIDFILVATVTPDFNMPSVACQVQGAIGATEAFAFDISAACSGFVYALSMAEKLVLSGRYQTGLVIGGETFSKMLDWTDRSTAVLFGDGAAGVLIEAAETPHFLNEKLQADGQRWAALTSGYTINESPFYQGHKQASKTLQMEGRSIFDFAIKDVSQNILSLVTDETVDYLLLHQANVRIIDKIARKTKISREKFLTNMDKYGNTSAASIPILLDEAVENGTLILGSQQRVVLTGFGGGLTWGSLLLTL
# Method Description: Inhibitory concentration against Enterococcus faecalis beta-Ketoacyl-acyl carrier protein synthase III
Provide the recorded IC50 for the entries that follow.
Give just the number in µM; leave the unit off.

Form field: reported IC50 of CC(C)c1cccc(-c2ccc(C(=O)Nc3ccccc3C(=O)O)cc2Oc2ccccc2)c1 0.79

Form field: reported IC50 of O=C(Nc1ccccc1C(=O)O)c1ccc(N2CCSCC2)c(Oc2ccccc2)c1 1.2

Form field: reported IC50 of O=C(Nc1ccccc1C(=O)O)c1cccc(Oc2ccncc2)c1 10

Form field: reported IC50 of O=C(Nc1ccccc1C(=O)O)c1ccc(Br)c(Oc2ccccc2)c1 1.1

Form field: reported IC50 of CCN(CC)S(=O)(=O)c1cc(C(=O)Nc2ccccc2C(=O)O)ccc1F 8.4

Form field: reported IC50 of CCN(CC)S(=O)(=O)c1cc(C(=O)Nc2ccccc2C(=O)O)ccc1OC 11.4

Form field: reported IC50 of O=C(Nc1ccsc1C(=O)O)c1cccc(Oc2ccccc2)c1 10.1
